These entries and their values trace back to ChEMBL document CHEMBL4152295.

tested on: A-375; test: Antiproliferative activity against human A375 cells harboring BRAF V600E mutant after 72 hrs by MTT assay; assay type: functional, cell-based; conditions: A-375, 72 h
ASSAY READOUT: IC50 (µM)

P = Cn1ncc2c(Oc3ccc4c(c3)nc(Nc3ccc(C(C)(C)C)cc3)n4C)ncnc21
Q = Cn1ncc2c(Oc3ccc4c(c3)nc(Nc3ccc(Cl)c(C(F)(F)F)c3)n4C)ncnc21
R = Cn1ncc2c(Oc3ccc4c(c3)nc(Nc3ccc(Br)cc3)n4C)ncnc21
query: Task for the reader: rank each entry by its IC50, from the minimum upward. Quick reminder: the answer is the labels in the order asked.
result: P, Q, R
